Below, each entry is listed alongside its reported IC50.
Target system: Gamma-secretase
Assay procedure: Modulation of gamma-secretase in human H4 cells assessed as inhibition of in amyloid beta42 production by LPECL assay
Type: cell-based

Look over these answered cases.
N#Cc1ccccc1-c1ccc(Cn2c3ccccc3c3ccc(OCC(=O)O)cc32)cc1 | > 80 µM
CC(C)(Oc1ccc(/C(=N\OCCCCCCCCCO/N=C(/c2ccc(Cl)cc2)c2ccc(OC(C)(C)C(=O)O)cc2)c2ccc(Cl)cc2)cc1)C(=O)O | > 40 µM

Item CCCCCCCCCCCCCCCCO/N=C(/c1ccc(Cl)cc1)c1ccc(OC(C)(C)C(=O)O)cc1 was tested on Gamma-secretase; the reported IC50 is > 80 µM

// IC50 (Gamma-secretase) for CCCCCCCCCCCO/N=C(/c1ccc(Cl)cc1)c1ccc(OC(C)(C)C(=O)O)cc1 = > 40 µM

Known value: Gamma-secretase IC50 of the compound O=C(O)COc1ccc2c3ccccc3n(Cc3cccc(C4(C(F)(F)F)N=N4)c3)c2c1 equals > 80 µM

====

Target system: Gamma-secretase
Assay procedure: Modulation of gamma-secretase in human H4 cells assessed as inhibition of in amyloid beta42 production by LPECL assay
Format: cell-based
Recorded IC50 by entry

CCCCCCCCCO/N=C(/c1ccc(Cl)cc1)c1ccc(OC(C)(C)C(=O)O)cc1 | > 40 µM
CN(C)c1cccc2c(S(=O)(=O)n3c4ccccc4c4ccc(OCC(=O)O)cc43)cccc12 | > 40 µM
CCCCCCCCCCCCO/N=C(/c1ccc(Cl)cc1)c1ccc(OC(C)(C)C(=O)O)cc1 | > 40 µM
CC(C)(Oc1ccc(/C(=N\OCCCCCCCCCCO/N=C(/c2ccc(Cl)cc2)c2ccc(OC(C)(C)C(=O)O)cc2)c2ccc(Cl)cc2)cc1)C(=O)O | > 32.6 µM

Continue with the compound presented below.
The reported IC50 of the compound CCCCCCCCCCCCCCO/N=C(/c1ccc(Cl)cc1)c1ccc(OC(C)(C)C(=O)O)cc1 was > 80 µM
